Target: human plasma protein factor Xa (Homo sapiens)
Construct: measure proteolytic activity of the enzyme (factor Xa)
Test: Factor Xa IC50 determination: cleavage of paranitroanilide substrate S-2765 in 96-well plates
Conditions: fXa 1 nM, S-2765 100 μM, Tris buffered saline pH 7.4, room temperature
Source text: This example illustrates methods for evaluating the compounds of the invention, along with results obtained for such assays. The in vitro and in vivo Factor Xa isoform activities of the inventive compounds can be determined by various procedures known in the art, such as a test for their ability to inhibit the activity of the Factor Xa isoform. […] The IC50 value is the concentration (in nM) of the compound required to provide 50% inhibition of Factor Xa isoform. […]
outcomeMeasure: IC50

Qu. Lab note: need IC50 with human plasma protein factor Xa (Homo sapiens) for entry CN(C)CCN(C)C(=N)c1ccc(-c2nc(CNC(=O)c3ccc(Cl)s3)co2)cc1 , please look it up.
Ans. 100 to 500 nM

Qu. Also check CC1(CNC(=O)c2ccc(Cl)s2)CC(c2ccc(C(N3CCC3)=[N+]3CCC3)cc2)=NO1 (centres unmarked)
Ans. ≤ 100 nM

Qu. N=C(c1ccc(-c2cc(CNC(=O)c3ccc(Cl)s3)on2)c(N2CCOCC2)c1)N1CCCCC1 ?
Ans. ≤ 100 nM

Qu. Also need CCCN(C)C(=N)c1ccc(-c2cc(CNC(=O)c3ccc(Cl)s3)on2)cc1 , thanks.
Ans. ≤ 100 nM

***
Qu. Given the entry Cc1cccn(-c2ccc(-n3cc(CNC(=O)c4ccc(Cl)s4)nn3)cc2)c1=O , what IC50 was observed with human plasma protein factor Xa (Homo sapiens)?
Ans. ≤ 100 nM

Qu. What about this molecule? O=C(NCc1cn(-c2ccc(N3CCSCC3=O)cc2)nn1)c1ccc(Cl)s1
Ans. ≤ 100 nM

Qu. Request: COc1ccc(C2=NOC(CNC(=O)c3ccc(Cl)s3)C2)cc1 (centres unmarked)
Ans. ≥ 500 nM

###

Molecular target: human plasma protein factor Xa (Homo sapiens, UniProt P00742)
Construct: measure proteolytic activity of the enzyme (factor Xa)
Sequence (P00742 235-488 limits assumed): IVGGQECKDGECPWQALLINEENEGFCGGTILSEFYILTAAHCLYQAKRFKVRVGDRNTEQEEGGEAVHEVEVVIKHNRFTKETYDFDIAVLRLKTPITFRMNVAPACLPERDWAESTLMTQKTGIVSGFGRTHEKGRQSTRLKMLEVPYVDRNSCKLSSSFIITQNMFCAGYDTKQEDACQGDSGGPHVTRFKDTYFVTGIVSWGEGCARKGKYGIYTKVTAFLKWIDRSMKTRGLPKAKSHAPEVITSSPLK
Sequence (P00742 41-179 partner limits assumed): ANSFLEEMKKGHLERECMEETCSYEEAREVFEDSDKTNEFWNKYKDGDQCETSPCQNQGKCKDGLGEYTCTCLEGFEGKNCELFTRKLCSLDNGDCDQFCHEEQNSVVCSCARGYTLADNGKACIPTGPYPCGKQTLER
Experiment: Factor Xa IC50 determination: cleavage of paranitroanilide substrate S-2765 in 96-well plates
Conditions: fXa 1 nM, S-2765 100 μM, Tris buffered saline pH 7.4, room temperature
outcomeMeasure: IC50

Reference set, count: 4
Qu. Find the recorded IC50 belonging to CCOc1cc(C2=NCCN2C)ccc1-c1cc(CNC(=O)c2ccc(Cl)s2)on1 [Example 123] and report it.
Ans. ≤ 100 nM

Qu. One more compound: COc1cc(C2=NCCN2C)ccc1C1=NOC(CNC(=O)c2ccc(Cl)s2)C1 (centres unmarked) [Example 103]
Ans. ≤ 100 nM

Qu. Then this compound: Cc1cc(Nc2ccc(C3=NOC(CNC(=O)c4ccc(Cl)s4)C3)cc2)ccn1 (centres unmarked) [Example 228]
Ans. ≥ 500 nM

Qu. Could you do the same for N=C(c1ccc(-c2ccc(F)c(CNC(=O)c3ccc(Cl)s3)c2)cc1)N1CCCC1 [Example 376] , please?
Ans. ≤ 100 nM

Next:
Qu. # lookup: IC50 of O=C(NCc1cc(-c2ccc(N3CCCC3)cc2)no1)c1ccc(Cl)s1 [Example 256]
Ans. ≥ 500 nM

Qu. Param item: CC(C)Oc1cc(C2=NCCN2C)ccc1-c1cc(CNC(=O)c2ccc(Cl)s2)on1 [Example 127]
Ans. ≤ 100 nM

Qu. Moving on to the next compound: CSc1cc(C(=N)N2CCCCC2)ccc1-c1cc(CNC(=O)c2ccc(Cl)s2)on1 [Example 143]
Ans. ≥ 500 nM

Qu. Same for CN1CCN=C1c1ccc(-c2cc(CNC(=O)c3ccc(Cl)s3)on2)c(Oc2ccccc2)c1 [Example 131]
Ans. ≤ 100 nM

Qu. Can you check CN(c1ccc(C2=NOC(CNC(=O)c3ccc(Cl)s3)C2)cc1)c1ccnc(N)n1 (centres unmarked) [Example 231] next?
Ans. ≥ 500 nM

Qu. Try the compound O=C(NCc1cc(-c2ccc(C(N3CCC3)=[N+]3CCC3)cc2)no1)c1ccc(Cl)s1 [Example 27]
Ans. ≤ 100 nM
